test system: HT-29 colon adenocarcinoma cells; experiment: Antiproliferative activity (NCI procedure, sulforhodamine B), HT-29; assay type: cell-based, human; conditions: Homo sapiens, HT-29; Table 5; unit inferred, tested 781 nM to 100 μM, 48 h

smiles.repr: CC(C)(C)NC(=O)Nc1cccc(C2CCCCC2)c1
unit.abbreviation: µM
censor.symbol: =
IC50: 58.3

smiles.repr: CCCNC(=O)Nc1cccc(C(C)(C)C)c1
unit.abbreviation: µM
censor.symbol: >
IC50: 100

smiles.repr: CCCNC(=O)Nc1ccc(I)cc1
unit.abbreviation: µM
censor.symbol: =
IC50: 51.9

smiles.repr: CCCNC(=O)Nc1ccc(C(C)(C)C)cc1
unit.abbreviation: µM
censor.symbol: =
IC50: 54.9

smiles.repr: CC(C)NC(=O)Nc1ccc(C(C)(C)C)cc1
unit.abbreviation: µM
censor.symbol: =
IC50: 74.2

smiles.repr: CC(C)NC(=O)Nc1ccc(I)cc1
unit.abbreviation: µM
censor.symbol: =
IC50: 54.8

smiles.repr: CCCNC(=O)Nc1cccc(C2CCCCC2)c1
unit.abbreviation: µM
censor.symbol: =
IC50: 24.1

* * *

tested on: A549 adenocarcinoma alveolar epithelial cancer cells; experiment: Antiproliferative activity (NCI procedure, sulforhodamine B), A549; type: cell-based, human; conditions: Homo sapiens, A549; Table 8; unit inferred, tested 781 nM to 100 μM, 48 h
pIC50: −log10 of the molar value.

compound: S=C(Nc1cccc(C2CCCCC2)c1)NC1CC1 [Compound 105]
pIC50: 4.80
//
compound: S=C(Nc1cccc(I)c1)NC1CCCC1 [Compound 98]
pIC50: 4.66
//
compound: S=C(Nc1ccc(I)cc1)NC1CCCC1 [Compound 102]
pIC50: 4.60
//
compound: S=C(Nc1ccc(C2CCCCC2)cc1)NC1CCCC1 [Compound 89]
pIC50: 4.70

* * *

Here the recorded melting point is given for each entry.
property.name: melting point

smiles.repr: CC(C)(C)c1cccc(NC(=S)NC2CC2)c1
property.name: melting point
recorded.result: 125 to 140 °C
--
smiles.repr: CC(C)(C)c1ccc(NC(=S)NC2CC2)cc1
property.name: melting point
recorded.result: 119 to 143 °C
--
smiles.repr: O=C(Nc1cccc(C2CCCCC2)c1)NC1CC1
property.name: melting point
recorded.result: 138 to 144 °C
--
smiles.repr: S=C(Nc1cccc(I)c1)NC1CCCC1
property.name: melting point
recorded.result: 136 to 147 °C
--
smiles.repr: O=C(NCC1CCC1)Nc1ccc(I)cc1
property.name: melting point
recorded.result: 159 to 160 °C
--
smiles.repr: O=C(NCC1CCC1)Nc1cccc(I)c1
property.name: melting point
recorded.result: 138 to 140 °C
--
smiles.repr: CC(C)(C)c1ccc(NC(=O)NCC2CC2)cc1
property.name: melting point
recorded.result: 168 to 170 °C
--
smiles.repr: O=C(Nc1ccc(C2CCCCC2)cc1)NC1CC=CC1
property.name: melting point
recorded.result: 167 to 169 °C

* * *

tested on: A549 adenocarcinoma alveolar epithelial cancer cells; assay: Antiproliferative activity (NCI procedure, sulforhodamine B), A549; assay type: cell-based, human; conditions: Homo sapiens, A549; Table 8; unit inferred, tested 781 nM to 100 μM, 48 h
pIC50: −log10 of the molar value.
Catalogue of molecules with associated pIC50

smiles.repr: S=C(Nc1cccc(I)c1)NC1CC1
censor.symbol: <
pIC50: 4.00
--
smiles.repr: S=C(NCC1CCC1)Nc1cccc(C2CCCCC2)c1
censor.symbol: =
pIC50: 4.77
--
smiles.repr: S=C(Nc1cccc(C2CCCCC2)c1)NC1CCCC1
censor.symbol: =
pIC50: 5.21
--
smiles.repr: CC(C)(C)c1ccc(NC(=S)NC2CCCC2)cc1
censor.symbol: =
pIC50: 4.58
--
smiles.repr: S=C(NCC1CCC1)Nc1ccc(C2CCCCC2)cc1
censor.symbol: =
pIC50: 4.82
--
smiles.repr: S=C(NCC1CCC1)Nc1ccc(I)cc1
censor.symbol: =
pIC50: 4.58
